All figures here come from ChEMBL document CHEMBL5291721.

tested-on: Progesterone receptor (Homo sapiens)
Sequence (P06401 whole entry): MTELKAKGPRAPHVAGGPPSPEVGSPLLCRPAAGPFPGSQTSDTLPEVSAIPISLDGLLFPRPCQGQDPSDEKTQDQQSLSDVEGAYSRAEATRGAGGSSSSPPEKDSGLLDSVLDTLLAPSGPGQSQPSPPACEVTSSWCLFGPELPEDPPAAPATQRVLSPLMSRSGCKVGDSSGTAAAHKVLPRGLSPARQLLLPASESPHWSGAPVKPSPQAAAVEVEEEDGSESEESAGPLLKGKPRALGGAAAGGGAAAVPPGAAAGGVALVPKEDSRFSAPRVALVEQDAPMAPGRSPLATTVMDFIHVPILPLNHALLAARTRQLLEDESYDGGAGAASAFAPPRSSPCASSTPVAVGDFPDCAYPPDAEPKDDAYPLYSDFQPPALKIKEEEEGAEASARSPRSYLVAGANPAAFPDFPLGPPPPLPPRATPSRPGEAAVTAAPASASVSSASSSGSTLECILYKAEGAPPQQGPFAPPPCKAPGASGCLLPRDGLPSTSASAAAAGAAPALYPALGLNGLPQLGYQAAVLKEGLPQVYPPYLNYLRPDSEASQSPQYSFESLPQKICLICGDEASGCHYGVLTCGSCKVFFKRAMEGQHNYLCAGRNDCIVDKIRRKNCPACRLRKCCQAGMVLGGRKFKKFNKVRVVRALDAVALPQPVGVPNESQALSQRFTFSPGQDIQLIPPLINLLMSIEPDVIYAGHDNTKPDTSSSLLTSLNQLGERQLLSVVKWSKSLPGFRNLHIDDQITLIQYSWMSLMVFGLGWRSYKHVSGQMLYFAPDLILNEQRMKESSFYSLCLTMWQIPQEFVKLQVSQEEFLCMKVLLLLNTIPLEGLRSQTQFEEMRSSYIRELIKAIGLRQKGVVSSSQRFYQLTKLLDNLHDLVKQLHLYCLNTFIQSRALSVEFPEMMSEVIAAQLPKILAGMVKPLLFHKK
# Lookup of reported AC50 keyed by entry

Solved entries:
1) CN(C)c1ccc(C(=C2C=CC(=[N+](C)C)C=C2)c2ccc(N(C)C)cc2)cc1	1.67 µM
2) O=C(COc1ccc(Cl)cc1)N1CCN(Cc2ccc3c(c2)OCO3)CC1 [FIPEXIDE]	> 30 µM
3) CN1CCC2=C(C1)c1ccccc1Cc1ccccc12	> 30 µM
4) COc1ccc(-c2cc(=O)c3c(O)cc(O[C@@H]4O[C@H](CO[C@@H]5O[C@@H](C)[C@H](O)[C@@H](O)[C@H]5O)[C@@H](O)[C@H](O)[C@H]4O)cc3o2)cc1O	> 30 µM

Sure, the documented AC50 for CS(=O)(=O)Nc1cc2occ(NC=O)c(=O)c2cc1Oc1ccccc1 is > 30 µM

Sure, the documented AC50 for CCC(=O)O[C@H]1[C@H](O[C@@H]2[C@@H](C)[C@H](O[C@H]3C[C@@](C)(OC)[C@@H](O)[C@H](C)O3)[C@@H](C)C(=O)O[C@H](CC)[C@@](C)(O)[C@H](O)[C@@H](C)C(=O)[C@H](C)C[C@@]2(C)O)O[C@H](C)C[C@@H]1N(C)C [ERYTHROMYCIN PROPIONATE] is 10.4 µM
